STUDY_TARGET: TS5-5 (ADAMTS-5) (Homo sapiens, UniProt Q9UNA0)
Construct: ADAMTS-5 (i.e. TS5-5, residues 264–555); FLAG; made in house; host or cells: HEK293 cells (previously transfected stocks)
Sequence (Q9UNA0 264-555): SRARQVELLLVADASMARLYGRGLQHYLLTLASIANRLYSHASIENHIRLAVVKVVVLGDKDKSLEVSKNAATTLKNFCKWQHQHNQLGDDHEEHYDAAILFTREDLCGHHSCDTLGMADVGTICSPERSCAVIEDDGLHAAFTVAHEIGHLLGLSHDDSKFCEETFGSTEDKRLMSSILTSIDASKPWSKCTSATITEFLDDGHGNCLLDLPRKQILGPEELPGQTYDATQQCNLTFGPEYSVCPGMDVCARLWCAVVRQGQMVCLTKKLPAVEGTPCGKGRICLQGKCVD
ASSAY_COMMENT: Determination of kinetic parameters (kcat and Km) for substrate cleavage by TS5-5, inner-filter corrected
Format: biochemical
EXPERIMENTAL_SETUP: supplementary CSV copy of Table 3; TS5-5, 37 °C
Procedure: A solution of Abz-TESE↓SRGAIY-Dpa-KK-NH2/3/26 (5 mM) or 19/23 (1 mM) in DMSO underwent a 2-fold serial dilution with freshly prepared TNC buffer containing 0.005% (v/v) Brij-35. […] Fluorescence intensity was measured at 37 °C for 1 h with readings every 20 s. The rate of substrate cleavage was determined at each substrate concentration and expressed as the mean ± SEM in μM s^–1. […] This equation enabled the Km value to be determined. The catalytic rate constant kcat was determined from eq 3: [drawing 3] […]
Non-standard residues stand in square brackets, D forms with d. No end group written: not given here. Tyr(3-NO2) = N[C@@H](Cc1ccc(O)c([N+](=O)[O-])c1)C(=O)O; 2Abz = Nc1ccccc1C(=O)O
MEASURED_PARAMETER: kcat

Item: KY(NO2)SESESRGK(Abz)IYYKKG (K[Tyr(3-NO2)]SESESRGK(Abz)IYYKKG) [Compound 23] | kcat: 1.14 ± 0.11 s⁻¹

Item: KY(NO2)TENESRGK(Abz)IYYKKG (K[Tyr(3-NO2)]TENESRGK(Abz)IYYKKG) [Compound 19] | kcat: 0.53 ± 0.014 s⁻¹

Item: Abz-TESE↓SRGAIY-Dpa-KK-NH2 [current, reference compound] | kcat: 3.61 ± 0.31 s⁻¹

Item: KY(NO2)SENESRGK(Abz)IYYKKG (K[Tyr(3-NO2)]SENESRGK(2Abz)IYYKKG) [Compound 26] | kcat: 3.32 ± 0.31 s⁻¹

Item: KY(NO2)TESESRGK(Abz)IYYKKG (K[Tyr(3-NO2)]TESESRGK(Abz)IYYKKG) [Compound 3] | kcat: 1.87 ± 0.15 s⁻¹

###

Assignment: determine reported decrease in Km compared to the current substrate for the given substances.
STUDY_TARGET: TS5-5 (ADAMTS-5) (Homo sapiens)
Construct: ADAMTS-5 (i.e. TS5-5, residues 264–555); FLAG; made in house; host or cells: HEK293 cells (previously transfected stocks)
Sequence (Q9UNA0 264-555): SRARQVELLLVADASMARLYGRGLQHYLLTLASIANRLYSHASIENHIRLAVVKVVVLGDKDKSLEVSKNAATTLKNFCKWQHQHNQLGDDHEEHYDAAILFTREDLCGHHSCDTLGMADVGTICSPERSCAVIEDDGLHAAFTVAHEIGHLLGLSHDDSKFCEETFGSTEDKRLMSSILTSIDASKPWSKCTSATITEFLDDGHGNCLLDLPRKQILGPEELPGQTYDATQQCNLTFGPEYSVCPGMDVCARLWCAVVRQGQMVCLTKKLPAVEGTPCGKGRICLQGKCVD
ASSAY_COMMENT: Determination of kinetic parameters (kcat and Km) for substrate cleavage by TS5-5, inner-filter corrected
Assay type: biochemical
EXPERIMENTAL_SETUP: TS5-5
Non-standard residues stand in square brackets, D forms with d. No end group written: not given here. Tyr(3-NO2) = N[C@@H](Cc1ccc(O)c([N+](=O)[O-])c1)C(=O)O; 2Abz = Nc1ccccc1C(=O)O

Item: KY(NO2)SESESRGK(Abz)IYYKKG (K[Tyr(3-NO2)]SESESRGK(Abz)IYYKKG) [Compound 23] | decrease in Km compared to the current substrate: ~2 fold

Item: KY(NO2)TESESRGK(Abz)IYYKKG (K[Tyr(3-NO2)]TESESRGK(Abz)IYYKKG) [Compound 3] | decrease in Km compared to the current substrate: ~4 fold

Item: KY(NO2)SENESRGK(Abz)IYYKKG (K[Tyr(3-NO2)]SENESRGK(2Abz)IYYKKG) [Compound 26] | decrease in Km compared to the current substrate: ~2 fold

Item: KY(NO2)TENESRGK(Abz)IYYKKG (K[Tyr(3-NO2)]TENESRGK(Abz)IYYKKG) [Compound 19] | decrease in Km compared to the current substrate: ~4 fold

Provenance of the data: paper PMC10009750
